Target or system UniProt:P42345: recorded IC50 listed per item.
Sequence (P42345 1360-2549 limits assumed): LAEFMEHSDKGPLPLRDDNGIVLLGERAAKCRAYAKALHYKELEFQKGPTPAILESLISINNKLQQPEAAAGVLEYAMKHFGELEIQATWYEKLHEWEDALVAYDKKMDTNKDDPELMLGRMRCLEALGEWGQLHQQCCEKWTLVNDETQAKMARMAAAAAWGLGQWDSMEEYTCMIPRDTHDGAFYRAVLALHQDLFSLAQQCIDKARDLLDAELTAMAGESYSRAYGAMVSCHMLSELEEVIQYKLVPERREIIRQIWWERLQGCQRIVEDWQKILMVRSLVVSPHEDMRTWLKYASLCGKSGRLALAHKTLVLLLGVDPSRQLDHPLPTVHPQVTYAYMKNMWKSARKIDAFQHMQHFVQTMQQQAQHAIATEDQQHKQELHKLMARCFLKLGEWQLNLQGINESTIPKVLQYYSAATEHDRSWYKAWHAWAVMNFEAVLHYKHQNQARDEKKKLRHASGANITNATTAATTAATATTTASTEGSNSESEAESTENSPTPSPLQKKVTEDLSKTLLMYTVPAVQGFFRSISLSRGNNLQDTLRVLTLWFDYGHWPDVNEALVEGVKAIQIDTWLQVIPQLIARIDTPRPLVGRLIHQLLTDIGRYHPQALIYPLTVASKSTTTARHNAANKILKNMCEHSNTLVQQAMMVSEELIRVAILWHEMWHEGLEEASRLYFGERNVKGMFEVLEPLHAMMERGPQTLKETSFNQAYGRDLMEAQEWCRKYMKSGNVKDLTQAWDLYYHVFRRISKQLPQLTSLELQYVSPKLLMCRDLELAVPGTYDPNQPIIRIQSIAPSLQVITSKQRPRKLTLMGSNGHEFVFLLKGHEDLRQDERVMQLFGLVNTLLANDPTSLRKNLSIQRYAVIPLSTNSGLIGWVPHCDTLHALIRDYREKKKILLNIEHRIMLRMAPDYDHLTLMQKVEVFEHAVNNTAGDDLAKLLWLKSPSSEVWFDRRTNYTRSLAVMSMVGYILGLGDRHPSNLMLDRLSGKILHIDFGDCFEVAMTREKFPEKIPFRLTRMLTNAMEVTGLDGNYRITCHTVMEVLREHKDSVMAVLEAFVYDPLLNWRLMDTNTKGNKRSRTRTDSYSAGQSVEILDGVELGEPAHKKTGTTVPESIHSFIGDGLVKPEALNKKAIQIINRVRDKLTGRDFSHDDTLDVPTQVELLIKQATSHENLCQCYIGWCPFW
Readout name: IC50 (nM)

Example molecules with recorded IC50:
{"columns": ["Smiles data", "IC50 [nM]"],
 "data": [
  ["COc1ncc(-c2ccc3ncc4c(c3c2)n(-c2cn(C)nc2C)c(=O)n4C)cn1", 68],
  ["COc1ncc(-c2ccc3ncc4c(c3c2)n(-c2cn(C)nc2Cl)c(=O)n4C)cc1CO", 3],
  ["COc1ccc(-c2ccc3ncc4[nH]c(=O)n(-c5cn(C)nc5C)c4c3c2)cn1", 11],
  ["CNC(=O)c1ccc(-c2ccc3ncc4c(c3c2)n(-c2cn(C)nc2Cl)c(=O)n4C)cc1", 4],
  ["COc1ccc(-c2ccc3ncc4c(c3c2)n(-c2cn(C(C)C)nc2C)c(=O)n4C)cc1OC", 61]
]}

A: CCn1cc(-n2c(=O)n(C)c3cnc4ccc(-c5cnc(COC)c(NC)c5)cc4c32)c(C)n1
B: Cc1nn(CC(=O)N2CCN(C)CC2)cc1-n1c(=O)n(C)c2cnc3ccc(-c4cnc(N5CCCC5)nc4)cc3c21
Of A and B , whose reported IC50 is the larger number? Give the label of your selection.
B

P: COCc1cc(-c2ccc3ncc4c(c3c2)n(-c2cn(C)nc2C)c(=O)n4C)cnc1OC
Q: CCn1cc(-n2c(=O)n(C)c3cnc4ccc(-c5ccc(OCCOC)c(OC)c5)cc4c32)c(C)n1
Given the two records P and Q , choose the one whose IC50 value is lower. Lab note: record the label of whichever item you select.
P

1: COc1ccc(-c2ccc3ncc4c(c3c2)n(-c2cn(C)nc2Cl)c(=O)n4C)cc1OC
2: Cc1nn(C)cc1-n1c(=O)n(C)c2cnc3ccc(-c4cncc(N5CCOCC5)c4)cc3c21
3: Cc1nn(C)cc1-n1c(=O)n(C)c2cnc3ccc(-c4cnc(CO)c(Cl)c4)cc3c21
Parameters: sort_field (IC50), sort_dir (desc). Response format: the labels, sorted as the prompt asks.
3, 1, 2
(3: 174 nM, 1: 14 nM, 2: 6 nM)

A: CCn1cc(-n2c(=O)n(C)c3cnc4ccc(-c5ccc(OC)c(OC)c5)cc4c32)c(C)n1
B: CCN(C)C(=O)Cn1cc(-n2c(=O)n(C)c3cnc4ccc(-c5ccccc5)cc4c32)c(C)n1
For A and B , which recorded IC50 is lower? Indicate your choice by writing its label.
A

Reference source for all entries: patent US20140005163A1
